Assay: aqueous solubility
Conditions: pH 7.4, aqueous buffer

| SMILES | solubility / µM |
| --- | --- |
| CC(C)Cn1cnc2c(N)nc3ccccc3c21 | 4 |

----------
Assay: physchem
Details: water

| MOLECULE | solubility (µM) |
| --- | --- |
| CC(C)(C)CC(=O)OCC(=O)[C@@]12OC(C)(C)O[C@@H]1C[C@H]1[C@@H]3CCC4=CC(=O)C=C[C@]4(C)[C@@]3(F)[C@@H](O)C[C@@]12C [Triamcinolone hexacetonide] | 3.75 |
